Would you kindly list inhibition of growth at 30 µM for each of these molecules?
Assay: Cytotoxicity against human MIAPaCa2 cells assessed as cell growth inhibition at 30 uM after 48 hrs by MTT assay
Assay type: functional
Details: MIA PaCa-2, 48 h, read-out: GI
// note: answer is a bare numeric in %

Lab note: measured inhibition of growth at 30 µM of `Cc1cc(C(=O)/C=C/c2ccc(OCCO[C@H]3O[C@@H]4O[C@@]5(C)CC[C@H]6[C@H](C)CC[C@@H]([C@H]3C)[C@@]46OO5)cc2)ccc1OCCO[C@H]1O[C@@H]2O[C@@]3(C)CC[C@H]4[C@H](C)CC[C@@H]([C@H]1C)[C@@]24OO3` was 44.3

Form field inhibition of growth at 30 µM, entry `C[C@H]1[C@@H](OCCOc2ccc(/C=C/C(=O)c3ccc(Cl)cc3)cc2)O[C@@H]2O[C@@]3(C)CC[C@H]4[C@H](C)CC[C@@H]1[C@@]24OO3` : 54.4

###

Experiment: Cytotoxicity against human HepG2 cells assessed as cell growth inhibition at 30 uM after 48 hrs by MTT assay
Format: functional
Conditions: HepG2, 48 h, read-out: GI
inhibition of growth at 30 µM of 30% or higher: yes. Under 30%: no.

I'd appreciate it if you could say whether `C[C@H]1[C@@H](OCCOc2ccc(/C=C/C(=O)c3cccc(O)c3)cc2)O[C@@H]2O[C@@]3(C)CC[C@H]4[C@H](C)CC[C@@H]1[C@@]24OO3` has inhibition of growth at 30 µM at least equal to 30%.
yes

Does the molecule C[C@H]1[C@@H](O)O[C@@H]2O[C@@]3(C)CC[C@H]4[C@H](C)CC[C@@H]1[C@@]24OO3 [ARTENIMOL] have recorded inhibition of growth at 30 µM that is 30% or more?
yes

For this molecule, is measured inhibition of growth at 30 µM 30% or higher? `COc1ccc(/C=C/C(=O)c2ccc(OCCO[C@H]3O[C@@H]4O[C@@]5(C)CC[C@H]6[C@H](C)CC[C@@H]([C@H]3C)[C@@]46OO5)cc2)c(OC)c1`
no

Is inhibition of growth at 30 µM for `COc1ccc(/C=C/C(=O)c2ccc(OCCO[C@H]3O[C@@H]4O[C@@]5(C)CC[C@H]6[C@H](C)CC[C@@H]([C@H]3C)[C@@]46OO5)cc2)c(OC)c1OC` at or above 30%?
no

# check: inhibition of growth at 30 µM of `COc1ccc(C(=O)/C=C/c2ccc(OCCO[C@H]3O[C@@H]4O[C@@]5(C)CC[C@H]6[C@H](C)CC[C@@H]([C@H]3C)[C@@]46OO5)cc2)c(OC)c1` is greater than or equal to 30%
no

Is reported inhibition of growth at 30 µM greater than or equal to 30% here: `C[C@H]1[C@@H](OCCOc2ccc(/C=C/C(=O)c3ccc(Cl)cc3)cc2)O[C@@H]2O[C@@]3(C)CC[C@H]4[C@H](C)CC[C@@H]1[C@@]24OO3`
no

Form field: inhibition of growth at 30 µM at least 30%? Entry: `Cc1cc(C(=O)/C=C/c2ccc(OCCO[C@H]3O[C@@H]4O[C@@]5(C)CC[C@H]6[C@H](C)CC[C@@H]([C@H]3C)[C@@]46OO5)cc2)ccc1OCCO[C@H]1O[C@@H]2O[C@@]3(C)CC[C@H]4[C@H](C)CC[C@@H]([C@H]1C)[C@@]24OO3`
no

Is reported inhibition of growth at 30 µM greater than or equal to 30% here: `COc1ccc(C(=O)/C=C/c2ccc(OCCO[C@H]3O[C@@H]4O[C@@]5(C)CC[C@H]6[C@H](C)CC[C@@H]([C@H]3C)[C@@]46OO5)cc2)cc1Cl`
no

Please check the record `CCOc1cc(/C=C/C(=O)c2ccc(OCCO[C@H]3O[C@@H]4O[C@@]5(C)CC[C@H]6[C@H](C)CC[C@@H]([C@H]3C)[C@@]46OO5)cc2)ccc1O` and state if its inhibition of growth at 30 µM is at or above 30%.
no

Check this molecule for inhibition of growth at 30 µM at or above 30%: `C[C@H]1[C@@H](OCCOc2ccc(/C=C/C(=O)c3ccc(Cl)s3)cc2)O[C@@H]2O[C@@]3(C)CC[C@H]4[C@H](C)CC[C@@H]1[C@@]24OO3`
no

Would you say `C[C@H]1[C@@H](OCCOc2ccc(/C=C/C(=O)c3ccc(OCCO[C@H]4O[C@@H]5O[C@@]6(C)CC[C@H]7[C@H](C)CC[C@@H]([C@H]4C)[C@@]57OO6)cc3)cc2)O[C@@H]2O[C@@]3(C)CC[C@H]4[C@H](C)CC[C@@H]1[C@@]24OO3` shows inhibition of growth at 30 µM at minimum 30%?
yes

hey, is inhibition of growth at 30 µM for this one >= 30%? `C[C@H]1[C@@H](OCCOc2ccc(/C=C/C(=O)c3ccccc3Cl)cc2)O[C@@H]2O[C@@]3(C)CC[C@H]4[C@H](C)CC[C@@H]1[C@@]24OO3`
no

The values you see were collected from ChEMBL document CHEMBL3865799.
